These data points were gathered from the CheMixHub drug solubility set.

Consider the following molecules; for each one, report its solubility (g/100 g solution).
Assay: xn = mol fraction of the nth substance listed, in the solute-free solvent
Settings: 288.15 K; x2 = 0.8
Form: value (number only, do not type unit).

### Prompt Look up solubility (g/100 g solution): CCCCOc1ccc(C(=O)CCN2CCCCC2)cc1.Cl + CO + C1CCOC1
### Response 42

### Prompt Look up solubility (g/100 g solution): COC1=CC(=O)CC(C)C12Oc1c(Cl)c(OC)cc(OC)c1C2=O (stereo not given) + CC(C)=O + CC(C)O
### Response 2.39

### Prompt Look up solubility (g/100 g solution): CC(=O)OC(c1ccccc1)C(Cl)(Cl)Cl (stereo not given) + CC(C)O + O
### Response 2.69

### Prompt Look up solubility (g/100 g solution): COC1=CC(=O)CC(C)C12Oc1c(Cl)c(OC)cc(OC)c1C2=O (stereo not given) + CCC(C)=O + CC(C)O
### Response 1.87

### Prompt Look up solubility (g/100 g solution): O=C1CCc2ccc(OCCCCN3CCN(c4cccc(Cl)c4Cl)CC3)cc2N1 + CCC(C)=O + CCOC(C)=O
### Response 1.53

###

Assay: xn = mol fraction of the nth substance listed, in the solute-free solvent
Conditions: 303.15 K; x2 = 0.9
endpoint: solubility (g/100 g solution)

### Prompt Look up solubility (g/100 g solution): COC1=CC(=O)CC(C)C12Oc1c(Cl)c(OC)cc(OC)c1C2=O (stereo unspecified) + CC(C)=O + CC(C)O
### Response 3.78

### Prompt Look up solubility (g/100 g solution): O=C(O)C1CSCN1 (stereo unspecified) + O + CC#N
### Response 2.4

### Prompt Look up solubility (g/100 g solution): O=C1CCc2ccc(OCCCCN3CCN(c4cccc(Cl)c4Cl)CC3)cc2N1 + CCC(C)=O + CCOC(C)=O
### Response 2.91

### Prompt Look up solubility (g/100 g solution): COC1=CC(=O)CC(C)C12Oc1c(Cl)c(OC)cc(OC)c1C2=O (stereo unspecified) + CC(=O)CC(C)C + CC(C)O
### Response 1.1

### Prompt Look up solubility (g/100 g solution): CC(=O)OC(c1ccccc1)C(Cl)(Cl)Cl (stereo unspecified) + CC(C)O + O
### Response 6.71

### Prompt Look up solubility (g/100 g solution): CC(=O)OC(c1ccccc1)C(Cl)(Cl)Cl (stereo unspecified) + CCO + O
### Response 7.3

###

Consider the following compounds; for each one, report its solubility (g/100 g solution).
Experiment: xn = mol fraction of the nth substance listed, in the solute-free solvent
Conditions: 293.15 K; x2 = 0.6
Form: value (number only, do not type unit).

### Prompt Look up solubility (g/100 g solution): O=C1CCc2ccc(OCCCCN3CCN(c4cccc(Cl)c4Cl)CC3)cc2N1 + CCC(C)=O + CCCO
### Response 3.18

### Prompt Look up solubility (g/100 g solution): CC(=O)OC(c1ccccc1)C(Cl)(Cl)Cl (centres undefined) + CC(=O)O + O
### Response 2.06

### Prompt Look up solubility (g/100 g solution): O=C1CCc2ccc(OCCCCN3CCN(c4cccc(Cl)c4Cl)CC3)cc2N1 + CCC(C)=O + CC(C)=O
### Response 1.93

### Prompt Look up solubility (g/100 g solution): COC1=CC(=O)CC(C)C12Oc1c(Cl)c(OC)cc(OC)c1C2=O (centres undefined) + CC(=O)CC(C)C + CC(C)O
### Response 0.751

###

Assay: xn = mol fraction of the nth substance listed, in the solute-free solvent
Details: 298.15 K; x2 = 0.8
endpoint: solubility (g/100 g solution)
Form: value (number only, do not type unit).

### Prompt Look up solubility (g/100 g solution): COC1=CC(=O)CC(C)C12Oc1c(Cl)c(OC)cc(OC)c1C2=O (stereo not drawn) + CCC(C)=O + CC(C)O
### Response 2.37

### Prompt Look up solubility (g/100 g solution): CC(=O)OC(c1ccccc1)C(Cl)(Cl)Cl (stereo not drawn) + CC(=O)O + O
### Response 7.58

### Prompt Look up solubility (g/100 g solution): COC1=CC(=O)CC(C)C12Oc1c(Cl)c(OC)cc(OC)c1C2=O (stereo not drawn) + CC(C)=O + CC(C)O
### Response 2.95
